- test_description: qHTS assay for small molecule agonists of the p53 signaling pathway - cell viability (AID 651633); further: nearly all actives have a fitted effect of over 30% in size
- study_conditions: p53RE-bla HCT-116 viability, ATP luminescence, 16 h; series mostly up to 83.3 µM
Records with an inconclusive call do not appear. Active and inactive are the calls of the source. The call rests on the fitted dose curve.
A correct response names exactly one class from active, inactive

Known results for compounds:
| compound | class_assignment |
| --- | --- |
| O=C1NC(=O)[C@H]2[C@@H]1[C@@H]1C=C[C@H]2C1 | inactive |
| CC(=O)O[C@H]1CC[C@@]2(C)C(=CC[C@H]3[C@@H]4CC[C@H](C(C)=O)[C@@]4(C)CC[C@@H]32)C1 | inactive |
| C=C1c2c(Cl)ccc(O)c2C(O)=C2C(=O)[C@]3(O)C(O)=C(C(N)=O)C(=O)[C@@H](N(C)C)[C@@H]3[C@@H](O)[C@H]12 | inactive |
| CC(=O)N[C@@H](C=O)[C@@H](O)[C@H](O)[C@H](O)CO | inactive |
| CO[C@H]1C[C@@H]2CC[C@@H](C)[C@@](O)(O2)C(=O)C(=O)N2CCCC[C@H]2C(=O)O[C@H]([C@H](C)C[C@@H]2CC[C@@H](OC(=O)C(C)(CO)CO)[C@H](OC)C2)CC(=O)[C@H](C)/C=C(\C)[C@@H](O)[C@@H](OC)C(=O)[C@H](C)C[C@H](C)/C=C/C=C/C=C/1C | inactive |
| C/C(=C(\CCOC(=O)c1ccccc1)SS/C(CCOC(=O)c1ccccc1)=C(/C)N(C=O)Cc1cnc(C)nc1N)N(C=O)Cc1cnc(C)nc1N | inactive |
| CN1[C@@H]2CC[C@H]1CC(OC(c1ccccc1)c1ccccc1)C2 (stereo partly drawn) | inactive |
| CC(=O)N[C@@H]1C(O[C@H]2O[C@H](C(=O)O)C(O)[C@H](O)[C@H]2O)[C@H](O)[C@@H](CO)O[C@H]1O[C@@H]1C(C(=O)O)O[C@@H](O[C@H]2[C@H](O)[C@@H](CO)OC(O)[C@@H]2NC(C)=O)[C@H](O)[C@H]1O (stereo partly drawn) | inactive |

Query string: For O=C(CCCCCCCCCCCCC1CCCC1)Nc1ccc(S(=O)(=O)c2ccc(NC(=O)CCCCCCCCCCCCC3CCCC3)cc2)cc1 , what call appears in the results of this test?
Result string: inactive

Query string: Likewise for CCOC(=O)c1cc(-c2ccccc2)nc2ccc(C)cc12 ?
Result string: inactive

Query string: Try this compound too: CCNC(=O)[C@@H]1CCCN1C(=O)[C@H](CCCN=C(N)N)NC(=O)[C@H](CC(C)C)NC(=O)[C@@H](Cc1c[nH]c2ccccc12)NC(=O)[C@H](Cc1ccc(O)cc1)NC(=O)[C@H](CO)NC(=O)[C@H](Cc1c[nH]c2ccccc12)NC(=O)[C@H](Cc1cnc[nH]1)NC(=O)[C@@H]1CCC(=O)N1
Result string: active

Query string: Follow-up item: CC1(C)S[C@@H]2[C@H](NC(=O)C(C(=O)Oc3ccc4c(c3)CCC4)c3ccccc3)C(=O)N2[C@H]1C(=O)O (stereo partly drawn)
Result string: inactive

Query string: Moving on to Cc1nnc(C(C)C)n1C1C[C@H]2CC[C@@H](C1)N2CC[C@H](NC(=O)C1CCC(F)(F)CC1)c1ccccc1 (stereo partly drawn)
Result string: inactive
